The reported measurements were obtained from patent US8895695B2.

- test target: CXCR4 (Homo sapiens)
- Sequence (P61073 whole entry): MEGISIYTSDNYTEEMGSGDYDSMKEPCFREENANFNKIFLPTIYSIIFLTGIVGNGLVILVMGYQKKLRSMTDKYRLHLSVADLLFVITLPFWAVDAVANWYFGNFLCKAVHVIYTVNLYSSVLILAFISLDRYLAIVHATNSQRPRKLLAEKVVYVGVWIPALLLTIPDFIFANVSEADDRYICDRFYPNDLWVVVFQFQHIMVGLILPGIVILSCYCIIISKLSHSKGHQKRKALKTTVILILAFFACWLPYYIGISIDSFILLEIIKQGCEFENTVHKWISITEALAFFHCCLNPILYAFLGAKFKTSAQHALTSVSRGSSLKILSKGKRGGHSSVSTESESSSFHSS
- test details: Ca2+-assay method 2 (Flexstation, SDF-1 induced calcium mobilization)
- Format: cell-based
- Design: expressed in transfected cells; host or cells: mouse pre-B cell line 300-19
- condition parameters: method 2 (Ex. 54-160), mouse pre-B cell line 300-19 with human CXCR4, 10 nM SDF-1; read-out: IC50 (nM) Ca^2+ assay
Bridge positions count the residues as written; N and C are the ends. Square brackets hold non-standard residues; d marks the D form. Peptide text beside a SMILES is read from it. 2Nal = N[C@@H](Cc1ccc2ccccc2c1)C(=O)O; Cit = NC(=O)NCCC[C@H](N)C(=O)O
Reported values of IC50 for individual entries

Query: Dear colleague, please send me the reported IC50 for N=C(N)NCCC[C@@H]1NC(=O)[C@@H]2CSSC[C@H](NC(=O)[C@H](Cc3ccc4ccccc4c3)NC(=O)[C@H](CCCNC(=N)N)NC(=O)[C@H](CCCNC(=N)N)NC(=O)[C@H]3CCCN3C(=O)CNC1=O)C(=O)N[C@@H](Cc1ccc(O)cc1)C(=O)N[C@@H](CCCCN)C(=O)N[C@@H](CCCCN)C(=O)N1CCC[C@@H]1C(=O)N1CCC[C@H]1C(=O)N[C@@H](Cc1ccc(O)cc1)C(=O)N[C@@H](CCCNC(=N)N)C(=O)N[C@@H](CCCNC(N)=O)C(=O)N2 [Ex. 79] (cyclo(YR[Cit]CRG[dP]RR[2Nal]CYKK[dP]P); disulfide 4-11) when you can.
Reply: 2.4 nM
